Sourced from patent US20260217813A1

Molecular target: T1, IL-12 (Human IL12 (His Tag)), Sino Biological Cat. No. CT-050-H08H-20 (human, UniProt P29460 23-328; P29459 23-219)
T1 construct: Bought His-tagged p35/p40 heterodimer
T1 sequence (looked up) 1: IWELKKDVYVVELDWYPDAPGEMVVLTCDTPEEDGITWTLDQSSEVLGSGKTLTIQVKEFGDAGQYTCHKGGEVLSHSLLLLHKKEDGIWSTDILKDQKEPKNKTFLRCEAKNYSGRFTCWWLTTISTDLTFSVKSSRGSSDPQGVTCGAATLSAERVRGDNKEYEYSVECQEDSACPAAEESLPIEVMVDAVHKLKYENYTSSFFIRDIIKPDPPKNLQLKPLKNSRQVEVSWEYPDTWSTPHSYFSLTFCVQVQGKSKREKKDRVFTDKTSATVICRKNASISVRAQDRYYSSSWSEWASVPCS
T1 sequence (looked up) 2: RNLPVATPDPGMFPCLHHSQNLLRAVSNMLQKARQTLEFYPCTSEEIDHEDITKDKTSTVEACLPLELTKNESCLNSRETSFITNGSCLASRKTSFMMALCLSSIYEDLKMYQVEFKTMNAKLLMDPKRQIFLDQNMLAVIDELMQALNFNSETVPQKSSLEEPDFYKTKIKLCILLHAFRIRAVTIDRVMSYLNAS
Test: FACS competition, IL-12-His 20 nM on 293T-IL-12RB1&IL-23R cells, antibody 3.33 µg/mL
measure: MFI
Numbers only.

Query block: Tell me the measured MFI of H5L12 (antibody, human IgG1, kappa, V domains shown, IgG1/kappa) VH: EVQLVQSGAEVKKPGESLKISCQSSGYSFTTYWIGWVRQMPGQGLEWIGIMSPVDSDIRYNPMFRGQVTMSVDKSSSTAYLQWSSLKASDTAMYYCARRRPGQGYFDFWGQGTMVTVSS VL: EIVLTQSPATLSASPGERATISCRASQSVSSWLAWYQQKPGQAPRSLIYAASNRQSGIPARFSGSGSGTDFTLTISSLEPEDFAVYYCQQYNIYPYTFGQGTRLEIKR , please.
Result block: 31.8
